Reported Papp A→B values for the following compounds.
test: Apparent permeability from apical to basolateral side of the human Caco-2 membrane
Format: ADME, cell-based
*1 amine or outer side, *2 acyl side, *3 side chain or, on linkers, in order; H or OH if unused. Where a SMILES comes first, the peptide text is derived from it. [ ]: non-standard residue; d: D form. The star is where a group is joined. ξ: configuration not given here. NH(β-D-Glc) = OC[C@H]1O[C@@H](N*)[C@H](O)[C@@H](O)[C@@H]1O; ξGly(decyl) = CCCCCCCCCCC(N)C(=O)O; Suc = O=C(CCC(=O)[*:2])[*:1]; ξAoc(2) = CCCCCCC(N)C(=O)O

| compound | Papp A→B [×10⁻⁶ cm/s] |
| --- | --- |
| CCCCCCC(NC(=O)[C@H](Cc1ccccc1)NC(=O)[C@H](Cc1c[nH]c2ccccc12)NC(=O)[C@@H]1CCCN1C(=O)[C@H](Cc1ccc(O)cc1)NC(=O)CCC(=O)N[C@@H]1O[C@H](CO)[C@@H](O)[C@H](O)[C@H]1O)C(N)=O (stereo partly drawn) ({NH(β-D-Glc)-Suc}-YPWF[ξAoc(2)]-NH2) | 1.14 |
| CCCCCCCCCCC(N)C(=O)N[C@@H](Cc1ccc(O)cc1)C(=O)N1CCC[C@H]1C(=O)N[C@@H](Cc1c[nH]c2ccccc12)C(=O)N[C@@H](Cc1ccccc1)C(N)=O (some centres not stated) (H-[ξGly(decyl)]YPWF-NH2) | 1.24 |
